Tested on: IGROV1 ovarian
Assay: NCI tumour cell line growth inhibition, 48 h
measure-name: TGI

# CC(C)(C)OC(=O)N1CCCC1C(=O)NCCNc1ccc(NCCNC(=O)C2CCCN2C(=O)OC(C)(C)C)c2c1C(=O)c1ccccc1C2=O (stereo not given) with IGROV1 ovarian: TGI is 31.7 µM

Form field TGI for item NC(Cn1ccc(=O)c(O)c1)C(=O)O (stereo not given) on IGROV1 ovarian: > 100 µM

Item Cc1nn2c(=O)n(-c3cccc(-n4nnc5c(-c6ccccc6)c(C)nn5c4=O)c3C)nnc2c1-c1ccccc1 was tested on IGROV1 ovarian; the reported TGI is > 100 µM

Measured on IGROV1 ovarian, CN(C)CCCNC(=O)c1cccc2nc3ccccc3nc12 has a documented TGI of > 82.2 µM

With IGROV1 ovarian as the test system, Cc1cc(O)c2cc3c(O)c(O)ccc3cc2c1 showed TGI of 10.8 µM

* * *

System: ACHN renal
Assay: NCI tumour cell line growth inhibition, 48 h
Please mark true (1) if the recorded TGI is equal to or greater than 30 µM, and false (0) if it falls below.

query: Does O=C1NC2(NC(=O)C1=O)Nc1ccccc1S2 have a reported TGI of at least 30 µM?
result: true (1)

query: Check the entry CC(C)(C)C(=O)CC(=O)C(F)(F)C(F)(F)C(F)(F)F.CC(C)(C)C(=O)CC(=O)C(F)(F)C(F)(F)C(F)(F)F.CC(C)(C)C(=O)CC(=O)C(F)(F)C(F)(F)C(F)(F)F.[Er] : does TGI equal or exceed 30 µM?
result: true (1)

query: Can N=c1oc2ccc([N+](=O)[O-])cc2cc1C(=O)Nc1ccccn1 be said to have TGI at or above 30 µM?
result: true (1)

query: Has COc1cc2c(cc1OCc1ccccc1)N=C[C@@H]1C[C@@H](F)CN1C2=O a recorded TGI greater than or equal to 30 µM?
result: false (0)

query: Exam item: decide whether the reported TGI for CCCCCCCCn1ccc2cc(NC(=O)Cn3cc(CN4CCC(C)CC4)nn3)ccc21 is at least 30 µM.
result: false (0)

query: Is the recorded value of TGI equal to or greater than 30 µM for this compound? COC(=O)NN/C=C(\C=Nc1ccccc1)[N+](=O)[O-]
result: true (1)

query: Answer whether TGI of C=CCN1C(=O)/C(=C/c2ccccc2)N=C1SC1OC(COC(C)=O)C(OC(C)=O)C(OC(C)=O)C1OC(C)=O (configuration not stated) is greater than or equal to 30 µM.
result: true (1)

query: Dear colleague, could you confirm whether CN(C)CCCNC(=O)c1cccc2nc3ccccc3nc12 has TGI at or above 30 µM?
result: true (1)

query: Does TGI meet or surpass 30 µM for NC(=O)c1ccccc1NC(=O)C(=O)Nc1n[nH]c(N)n1 ?
result: true (1)

query: Check this compound for TGI at or above 30 µM: CN(CCNC(=O)c1cn(C)c2c1ccc1cc(Cl)ccc12)CCNC(=O)c1cn(C)c2c1ccc1cc(Cl)ccc12
result: false (0)

query: Textbook exercise: given the entry CCSC1=C(C#N)C2(CCCCC2)C2=C(CC(C)(C)CC2=O)N1 , state whether its TGI is greater than or equal to 30 µM.
result: true (1)

* * *

Tested on: HOP-62 NSCLC
Assay: NCI tumour cell line growth inhibition, 48 h
measure-name: TGI

The reported TGI value, HOP-62 NSCLC, for N=C1/C(=C/c2ccccc2)C(=O)N=C2SC=NN12 reads > 100 µM

Short answer on HOP-62 NSCLC for Oc1[nH]c2ccc(Cl)cc2c1/C=c1/ccc2c(c1)N=C(c1ccc(C(F)(F)F)cc1)N=2 , TGI: 4.78 µM

Given the compound CCOC(=O)CCC(NC(=O)c1ccc(OCc2ccc3nc(OC)c(OC)nc3c2)cc1)C(=O)OCC (stereo unspecified) and test system HOP-62 NSCLC, the measured TGI is > 100 µM

Lab entry: HOP-62 NSCLC assay, compound Cc1ccc(C)c(NC(=O)/C(=N\N)C(c2cnc3ccc([N+](=O)[O-])cc3n2)[N+](=O)[O-])c1 (stereo unspecified) , TGI = > 100 µM

HOP-62 NSCLC data for O=C(CCCCCNC1=CC(=O)c2ccccc2C1=O)NCCC[Te]c1ccccc1 ; its TGI: 0.731 µM

Form field TGI for item Cc1ccc(NC(=O)CC(=O)n2nc(-c3ccccc3)c(N=Nc3ccccc3C(=O)O)c2-c2ccccc2)cc1 on HOP-62 NSCLC: > 100 µM

Item: O=[N+]([O-])c1ccc(/C=N/n2c(CCc3n[nH]c(=S)n3/N=C/c3ccc([N+](=O)[O-])o3)n[nH]c2=S)o1 | System: HOP-62 NSCLC | TGI: 69.8 µM

Lab entry: HOP-62 NSCLC assay, compound COC(=O)CSc1n[nH]c(-c2ccccc2)n1 , TGI = > 100 µM

TGI of CCOC(=O)C1=C(C)NC(C)=C(C(=O)OCC)C1c1cc(Br)c(O)c(OC)c1 , assay on HOP-62 NSCLC, is 14.7 µM

Short answer on HOP-62 NSCLC for O=C1NC(=O)C(N2CCc3ccccc32)=C1c1ccc(Cl)cc1 , TGI: > 25 µM

TGI value, target or system HOP-62 NSCLC, for CCc1cccc(C(C)C)c1NC1=C([n+]2ccc(C)cc2)C(=O)c2ccccc2C1=O : 9.62 µM

GET /values?item= CC1(Br)S(=O)(=O)OCCOS1(=O)=O &system= HOP-62 NSCLC returns TGI: > 100 µM

Observed TGI, HOP-62 NSCLC, Cc1ccc(S(=O)(=O)Nn2c(C)cc3ccc(S(=O)(=O)Nc4ccccc4[N+](=O)[O-])cc3c2=O)cc1 : > 100 µM

Short answer on HOP-62 NSCLC for O=C1c2ccccc2-c2c1c1c(O)cccc1n2CCCc1ccccc1 , TGI: > 100 µM

Tested on HOP-62 NSCLC, the item Cc1ccc(S(=O)(=O)C(C#N)c2nc3ccccc3nc2N2CCOCC2)cc1 (stereo unspecified) showed TGI equal to 44.6 µM

// TGI (HOP-62 NSCLC) for Cc1ccc(-n2nnc3c(sc4ccccc43)c2=O)cc1 = 26.5 µM

Field TGI (system: HOP-62 NSCLC) for entry CC(=O)N1N=C(c2ccccc2Nc2ccccc2C2=NN(C(C)=O)C(c3ccccc3)O2)OC1c1ccccc1 (stereo unspecified) = > 100 µM

The reported HOP-62 NSCLC TGI of O=C(O)CC1C(=O)OC2C3COC(=O)c4cc(O)c(O)c(O)c4-c4c(cc(O)c(O)c4O)C(=O)OC2C(OC(=O)c2cc(O)c(O)c4c2C1C(O)C(=O)O4)C(OC(=O)c1cc(O)c(O)c(O)c1)O3 (stereo unspecified) is > 100 µM

The recorded TGI with HOP-62 NSCLC for Cc1cc(O)c2c(c1)C(=O)C=C(Br)C2=O was > 100 µM

Record O=NNc1ccc(Sc2ccc3ccccc3c2)cn1 / HOP-62 NSCLC, TGI recorded as 50.2 µM

Query Cc1cc(C(=O)N2CCN(C)CC2)c2c(=O)n(-c3ccccc3)c(=O)n(CC(O)CN3CCN(c4ncccn4)CC3)c2n1 (stereo unspecified) on HOP-62 NSCLC; TGI returned: > 100 µM

Value (TGI, HOP-62 NSCLC) for record Cc1ccc(N(C)S(=O)(=O)c2ccccc2)cc1 = > 100 µM

Entry O=C1NC(=O)/C(=C/c2ccc(S(=O)(=O)N/N=C/c3ccccc3)cc2)N1 : TGI on HOP-62 NSCLC = > 100 µM

Observed TGI on HOP-62 NSCLC, entry O=CNNC(=O)CSc1nc2ccc(I)cc2c(=O)n1Cc1ccccc1 , equals > 100 µM

Test item COc1ccc2[nH]c3c(C)c4ccnc(NCCCN(C)CCCN)c4c(C)c3c2c1 ; HOP-62 NSCLC; reported TGI was 0.385 µM

// returns TGI for CCn1c(SCC(=O)NNC(=S)Nc2ccc(Cl)cc2)nc2ccccc2c1=O with HOP-62 NSCLC; value = > 100 µM

Per the reported HOP-62 NSCLC data, c1ccc(-c2sc(-c3ccccc3)c3c2C2CCC3C2)cc1 has TGI of > 100 µM

Param item: O=[N+]([O-])c1ccc(N/N=C/c2ccccc2O)nc1 ; param system: HOP-62 NSCLC; output TGI: > 100 µM

Lab note: compound CC1C2CC(CC2O)C1(C)C (stereo unspecified) tested on HOP-62 NSCLC; recorded TGI was > 100 µM

The value of TGI recorded for COc1ccc2oc(-c3cc4cc(OC)ccc4o3)cc2c1 when tested on HOP-62 NSCLC reads > 100 µM

# value of TGI, HOP-62 NSCLC, item O=C(NCCSSCCNC(=O)/C(Cc1ccc(O)c(Br)c1)=N/O)/C(Cc1ccc(O)c(Br)c1)=N/O = 6.1 µM

Measured TGI for this entry CC(=O)C(CN(C)Cc1ccccc1)C(c1ccccc1)c1c(O)c2ccccc2oc1=O (stereo unspecified) on HOP-62 NSCLC: > 100 µM

Bench note, HOP-62 NSCLC: entry C=CCN1C(=O)/C(=C/c2ccccc2)N=C1SC1OC(COC(C)=O)C(OC(C)=O)C(OC(C)=O)C1OC(C)=O (stereo unspecified) , its TGI = > 100 µM

Value sought: TGI, system HOP-62 NSCLC, item c1ccc2c(c1)ccc1nc3ccccn3c12 . Result: > 100 µM

Reading of TGI for O=C(Nc1sccc1S(=O)(=O)c1ccc(Cl)cc1)c1ccc(Cl)cc1Cl with HOP-62 NSCLC: > 100 µM

Field TGI (HOP-62 NSCLC), entry O=C1CC(NC2CC(=O)c3c(Br)sc(Br)c32)c2c(Br)sc(Br)c21 (stereo unspecified) : 12.2 µM

// returns TGI for CC(=O)OCC1OC(N2C(=O)CC(N)=Nc3ccccc32)C(OC(C)=O)C(OC(C)=O)C1OC(C)=O (stereo unspecified) with HOP-62 NSCLC; value = > 100 µM

HOP-62 NSCLC assay, compound OCCSCc1cc(Cl)cc(Cl)c1O , recorded TGI = > 100 µM

With HOP-62 NSCLC as the test system, COc1cc(C2CC(=O)c3c(C)nn(-c4nc5ccccc5[nH]4)c3C2)cc(OC)c1OC (stereo unspecified) showed TGI of > 100 µM

Record for Cn1c2c(c3ccccc31)CC(=O)N1CCCC(C1)CC21OCCO1 (stereo unspecified) under target or system HOP-62 NSCLC: TGI reported as > 100 µM

Given the compound C=CC(Br)(CBr)CCC(Br)C(C)(C)Br (stereo unspecified) and test system HOP-62 NSCLC, the measured TGI is 36.1 µM
